system: E. coli (ATCC 25922); assay type: cell-based, Escherichia coli; conditions: ATCC 25922
No end group written: not given here.
measured metric: MIC (µM)
Form entry: value (µM) — number only.

Below: 5 substances and their reported MIC.
| substance | MIC / µM |
| --- | --- |
| FLKLRLWGRLLWKLK-NH2 [GR] | 2 |
| FLKLRLWRRLLWKLK-NH2 [RR] | 0.5 |
| FLKLRLWKRLLWKLK-NH2 [KR] | 0.25 |
| FLKLRLWGKLLWKLK-NH2 [GK] | 2 |
| FLKLRLWKKLLWKLK-NH2 [KK] | 0.5 |

Q: What value of measured MIC is listed for FLKLRLWRKLLWKLK-NH2 [RK] ?
Result: 0.25

----------
tested on: A. baumannii (309-14); format: cell-based, Acinetobacter baumannii; conditions: 309-14
No end group written: not given here.
Reported MIC by item:
Express it in µM; write the number only.

// known answers, use as guide
| substance | experimental result |
| --- | --- |
| FLKLRLWGKLLWKLK-NH2 [GK] | 2 |
| FLKLRLWGRLLWKLK-NH2 [GR] | 2 |
| FLKLRLWKRLLWKLK-NH2 [KR] | 0.25 |
| FLKLRLWRKLLWKLK-NH2 [RK] | 0.5 |
| FLKLRLWKKLLWKLK-NH2 [KK] | 0.5 |

Q: Lab note: need MIC for FLKLRLWRRLLWKLK-NH2 [RR] on A. baumannii (309-14), anyone have it?
Result: 1

----------
Catalogue of MIC after treatment, KCl readings, one per entry.
system: S. aureus; format: cell-based, Staphylococcus aureus; details: 12 h
No end group written: not given here.
# answer = value followed by unit

Consider the reported MIC after treatment, KCl for these substances:
| substance | MIC after treatment, KCl |
| --- | --- |
| FLKLRLWKKLLWKLK-NH2 [KK] | 0.5 µM |
| FLKLRLWGRLLWKLK-NH2 [GR] | 1 µM |
| FLKLRLWKRLLWKLK-NH2 [KR] | 0.25 µM |
| FLKLRLWRKLLWKLK-NH2 [RK] | 0.25 µM |
| FLKLRLWRRLLWKLK-NH2 [RR] | 0.5 µM |

For the next question, use this substance.
Q: For FLKLRLWGKLLWKLK-NH2 [GK] , what is its reported MIC after treatment, KCl?
Result: 1 µM

----------
This listing pairs substances with measured MIC after treatment, NaCl.
test system: S. aureus; format: cell-based, Staphylococcus aureus; conditions: 12 h
No end group written: not given here.
Answer with a number only, understood to be in µM.

Examples with answers:
| substance | test system | MIC after treatment, NaCl / µM |
| --- | --- | --- |
| FLKLRLWGRLLWKLK-NH2 [GR] | S. aureus | 1 |
| FLKLRLWKKLLWKLK-NH2 [KK] | S. aureus | 1 |
| FLKLRLWRKLLWKLK-NH2 [RK] | S. aureus | 0.25 |
| FLKLRLWKRLLWKLK-NH2 [KR] | S. aureus | 0.25 |
| FLKLRLWGKLLWKLK-NH2 [GK] | S. aureus | 1 |

Now consider a different substance.
Q: Sample FLKLRLWRRLLWKLK-NH2 [RR] — what was its MIC after treatment, NaCl?
Result: 0.5
